# studySystem: HLA-A*0206 (human)
# assayName: competition with 125I-labeled probe peptide for purified HLA, gel filtration
quantityMeasured: pIC50
The quantity pIC50 is defined as the negative base-10 logarithm of the molar concentration.

Return reported pIC50; argument: ATFDIESKV [Peptide 1418.30]
7.09

// data source = patent US20040037843A1
